- Tested on: MOLT-4
- testSummary: NCI tumour cell line growth inhibition, 48 h
Calls of active or inactive are those of the source. No stated cut-off is given here; in the data, active = GI50 up to about 1.1 µM and inactive = higher.
Listing of recorded GI50 by entry.

O=C(Nc1ccc2ncccc2c1)Nc1ccc2ncccc2c1	> 100 µM (inactive)
O=C(CCC(=O)c1ccc(Cl)cc1)NO	> 100 µM (inactive)
C=CCn1c(=O)c(C)cn(COCCO)c1=O	> 100 µM (inactive)
CCC(C)NC(=S)N/N=C(\C)c1nc2cccnc2[nH]1 (configuration not stated)	3.6 µM (inactive)
CSCCCN(CCCSC)CCCSC	24.2 µM (inactive)

What measured GI50 goes with Cc1ccsc1C(=S)Nc1ccc(Cl)c(/C=N/OC(C)C)c1 ?
11.2 µM (inactive)

# GI50 lookup, item Nc1nc2c(ncn2C2OC(CO)C(O)C2N)c(=O)[nH]1 (configuration not stated)
> 100 µM (inactive)

* * *

- Tested on: UACC-62
- testSummary: NCI tumour cell line growth inhibition, 48 h
The source made the active and inactive calls. Rule as the data show it: active = GI50 up to about 1.1 µM and inactive = higher.
Quick reference: GI50 of the listed items.

Known results for compounds:
CCN1C(=S)n2cccc2C1CC(=O)c1ccc(Cl)cc1 (stereo unspecified)	62.2 µM (inactive)
CN(C)c1c(C2OC(CO)C(O)C2O)c(=O)c1=O (stereo unspecified)	> 100 µM (inactive)
O=C(/C=C\Nc1ccccc1O)C(F)(F)F	45.4 µM (inactive)
CCOC(=O)CC1(Cc2ccc(OCc3ccccc3)cc2)C(=O)OC(c2ccccc2)N1C(=O)c1ccccc1 (stereo unspecified)	> 100 µM (inactive)
CCOC(=O)c1c(N=P(c2ccccc2)(c2ccccc2)c2ccccc2)nnc(-c2ccccc2)c1-c1ccccc1	> 100 µM (inactive)

Shifting focus to the compound that follows.
What measured GI50 goes with CNC(=S)OCCC(C)CCCC(C)C (stereo unspecified) ?
15.5 µM (inactive)

* * *

- Test system: SF-295
- testSummary: NCI tumour cell line growth inhibition, 48 h
Activity calls are given as the source filed them. Rule as the data show it: active = GI50 up to about 1.1 µM and inactive = higher. *1 amine or outer side, *2 acyl side, *3 side chain or, on linkers, in order; H or OH if unused. Where a SMILES comes first, the peptide text is derived from it. Bridges are numbered along the chain shown (N, C = ends). [ ]: non-standard residue; d: D form. ξ: configuration not given here. X10 = CCC(C)C(N[*:1])C(O)CC(=O)O[C@H](C(=O)C(C)C(=O)[*:2])C(C)C; NMeY = CN[C@@H](Cc1ccc(O)cc1)C(=O)O; ξNMeL = CNC(CC(C)C)C(=O)O; ξT = CC(O)C(N)C(=O)O
Log the outcome using a class from t = active, f = inactive

Check out these entries, answers already filled in.
CCCOC(=O)C1C(c2ccc(OC)cc2)NC(c2ccc(OC)cc2)C(C(=O)OCCC)S1(=O)=O (configuration not stated)	f
C=C1C(=O)OC2C1CC1OC2C(C)CCC/C(C)=C\CCC1(C)O (configuration not stated)	f
O=S(=O)(O)c1ccc(/N=N/c2ccc(/N=N/c3c(O)ccc4ccccc34)cc2)cc1	f
COc1ccc(COCC[C@H](C)OC2OC(CO)C(O)C(O)C2O)cc1 (some centres not stated)	f
CC(NC(=O)C(Cc1ccc(OC(=O)c2ccccc2)cc1)NC(=O)OC(C)(C)C)C(=O)NCC(=O)NC(Cc1ccccc1)C(=O)NN (configuration not stated)	f

Check the results log: what was the call for CCC(C)C1NC(=O)C(NC(=O)C(CC(C)C)N(C)C(=O)[C@@H]2CCCN2)C(C)OC(=O)[C@H](Cc2ccc(OC)cc2)N(C)C(=O)[C@@H]2CCCN2C(=O)[C@H](CC(C)C)NC(=O)C(C)C(=O)[C@H](C(C)C)OC(=O)CC1O (some centres not stated) (H-P[ξNMeL][ξT][X10]LP[NMeY](Me); ester 3-C) ?
t

# fetch the recorded call for Cn1cc(C[C@@H](N)C(=O)O)c2ccccc21 here
f

# lookup: test call for Cc1cc(=O)[nH]c(-n2[nH]c(C)c(CCO)c2=O)n1
f

GET /call?item= O=NN(CCCl)C(=O)N[C@H]1CCCC[C@@H]1Cl returns the recorded outcome of this test.
f

Record lookup: outcome of this test for CC(=O)OCC1OC(n2c(C)c(C(C)=O)c(-c3ccc(Cl)cc3)c(C#N)c2=S)C(OC(C)=O)C(OC(C)=O)C1OC(C)=O (configuration not stated) ?
f

// provenance: ChEMBL document CHEMBL1201862
